# protocol: qHTS of pediatric cancer cell lines to identify multiple opportunities for drug repurposing: Primary screen for BT-12 cells (AID 1347101); note: nearly all actives have a fitted effect of over 25% in size
# test parameters: BT-12 viability, CellTiter-Glo luminescence, 48 h; series mostly up to 57.3 µM
Records with an inconclusive call do not appear. Active and inactive are the calls of the source. Calls come from the whole dose curve; as a rule, active = well fitted cell-killing curve with a large enough effect; inconclusive = small, poorly fitted or top-dose-only effect; inactive = flat fitted curve, though single readings scatter.
Pick from active, inactive when you respond.

CCCCCC=CCC=CCCCCCCCC(=O)OCC :: inactive
NCCC(O)(P(=O)(O)O)P(=O)(O)O :: inactive
CC(C)(Oc1ccc(Cl)cc1)C(=O)O :: inactive
O=C(OCC(O)CO)c1ccccc1Nc1ccnc2cc(Cl)ccc12 (centres undefined) :: inactive
OC(CCN1CCCCC1)(c1ccccc1)c1ccccc1 :: inactive
CN1CCN(C(c2ccccc2)c2ccccc2)CC1 :: inactive

Task: Hi, do you know how `CCN1CCN(c2cc3c(cc2F)c(=O)c(C(=O)O)cn3C2CC2)CC1` came out in this test?
Result: inactive

Task: Hi, do you know how `COc1cc(-c2ccc(=O)[nH]n2)ccc1OC(F)F` came out in this test?
Result: inactive

Recorded values, source PubChem BioAssay (NCATS).
